Molecular target: HLA A*6802 (Homo sapiens, UniProt P04439, A269V/D140Y/D185E/E176V/E277Q/E87N/F33Y/G231S/I121R/I166T/I218V/L180W/L300P/L318F/N151K/P208A/P217A/Q86R/R138H/R169H/S129P/T345S/V36M)
Format: binding
Response field label: string, one of Criterion met (Normalized average relative binding affinity(ARB) strictly below 0.4) or Criterion not met.

Study these solved cases before continuing.
| QUERY SEQUENCE | ASSIGNED CATEGORY |
| --- | --- |
| XXXXXXHXX [3064.0127] | Criterion not met |
| XXXXQXXXX [3064.0094] | Criterion met |
| XXXXFXXXX [3064.0085] | Criterion not met |

Let's switch to this sequence now.
Is 0.4 strictly greater than the sequence's reported Normalized average relative binding affinity(ARB)? sequence: XXXXXSXXX [3064.0116]
Criterion not met

---

Measured Normalized average relative binding affinity (ARB), HLA B*0702 by item
Biological target: HLA B*0702 (Homo sapiens, UniProt P01889)
Type: binding
Conditions: positional scanning combinatorial 9-mer library; normalized to 1.0 for the best residue at each position

Reference set, count: 3
| QUERY SEQUENCE | EXPERIMENTAL RESULT |
| --- | --- |
| XLXXXXXXX [3064.0030] | 0.016 |
| XSXXXXXXX [3064.0036] | 0.0043 |
| RXXXXXXXX [3064.0015] | 1.0 |

Note: attention shifts to another entry.
Form field - read-out: Normalized average relative binding affinity (ARB), HLA B*0702; system: HLA B*0702 (Homo sapiens, UniProt P01889); submitted item: XEXXXXXXX [3064.0024]
0.0028

---

Target: HLA B*1503 (Homo sapiens, UniProt P01889, A329T/A93T/A95T/C349S/D201E/D98Y/E187L/E204Q/K202T/N87E/Q94N/R155S/R180L/S121R/S35A/V306I/V36M/Y140S/Y91S)
Experiment: biochemical
Type: binding
PROPERTY LABEL: Normalized average relative binding affinity(ARB)
No unit in the answer, please; the number alone is enough.

| QUERY SEQUENCE | EXPERIMENTAL RESULT |
| --- | --- |
| XXXXXYXXX [3064.0120] | 0.40 |
| XXXXXEXXX [3064.0104] | 0.40 |
| XXXXXXXLX [3064.0150] | 0.13 |
| XXXXMXXXX [3064.0091] | 0.064 |
| XXXHXXXXX [3064.0067] | 0.29 |
| XXXXXXQXX [3064.0134] | 0.95 |
| XXXXXXCXX [3064.0122] | 0.094 |
| XXXXXTXXX [3064.0117] | 0.79 |

For the sequence shown here, XXXXYXXXX [3064.0100] , give the reported Normalized average relative binding affinity(ARB).
0.34

Sample XXXXXKXXX [3064.0109] — what was its Normalized average relative binding affinity(ARB)?
0.26

Could you tell me which Normalized average relative binding affinity(ARB) is on file for XXXXXRXXX [3064.0115] ?
0.51

I would be grateful if you could share the reported Normalized average relative binding affinity(ARB) for XXXXEXXXX [3064.0084] .
0.41

If you can, please state the reported Normalized average relative binding affinity(ARB) value of XXXXNXXXX [3064.0092] .
0.26

// returns reported Normalized average relative binding affinity(ARB) for input XXXXXXXEX [3064.0144]
0.11
